The entries below are paired with their reported Growth Rate.
- Test system: HEK-293T
- assay: Incucyte cell viability with HEK293T; further: filed as whole numbers so only -1 and 0 and 1 occur
- Assay type: toxicity, cell-based
- run-parameters: human, 18 h, 10 µM, compound concentration 10 uM, replicate number 1, timepoint 18 hours
property-name: Growth Rate

1. CNC(=O)Nc1ccc(-c2nc(N3CC4CCC(C3)O4)c3cnn(C4CCC5(CC4)OCCO5)c3n2)cc1 | 0
2. COc1cc(C(=O)NS(=O)(=O)c2ccccc2C)ccc1Cc1cn(C)c2ccc(NC(=O)OC3CCCC3)cc12 [ZAFIRLUKAST] | 1
3. CSc1cccnc1N1CCN(Cc2nc3ccccc3[nH]2)CC1 [A-769] | 0
4. COC(=O)C1=C(C)NC(C)=C(C(=O)OCCCN2CCC(c3ccccc3)(c3ccccc3)CC2)[C@H]1c1cccc([N+](=O)[O-])c1 [NIGULDIPINE] | 0
5. C=CC(=O)Nc1cccc(Sc2nc(Nc3ccc(N4CCN(C)CC4)cc3)ncc2Cl)c1 | 0
6. COCCOc1nc(-c2ccc(Cl)nc2)nc2c1CN(C(=O)c1ncn3ccccc13)CC2 [THPP-1] | 1
7. COc1ccccc1CN[C@H]1C2CCN(CC2)[C@H]1C(c1ccccc1)c1ccccc1 [CP-96345] | 0
8. O=C(c1cc2c(cc1F)OC(c1ccc(F)cc1)(c1ccc(Cl)cc1Cl)O2)N1CCOCC1 (stereo not drawn) | 0

----------
- System: Fibroblast
- assay: Multiplex assay against human fibroblast
- Type: toxicity, cell-based
- run-parameters: 12 h, 10 µM, compound concentration 10 uM, replicate 2
property-name: Population Healthy Nuclei (%)

1) CC(C)NC(=O)N1CC[C@H](NC2=Nc3cc(F)ccc3N(CC(F)F)c3ccc(Cl)cc32)C1 | 81
2) CCOC(=O)Nc1cc(-c2ccc(C)c(NS(C)(=O)=O)c2)nn2c(C)nnc12 | 86
3) COc1ccc(-c2ccc3ncc4c(c3c2)n(-c2ccc(N3CCNCC3)c(C(F)(F)F)c2)c(=O)n4C)cn1.O=C(O)/C=C\C(=O)O | 9
4) Cc1ccc2c(c1)c1c(n2CCc2ccc(C)nc2)CCN(C)C1 [LATREPIRDINE] | 65
5) Cc1ccc(C)c(Oc2ccncc2C(=O)N2CCN(C3CC3)c3ccccc32)c1 | 72
6) COc1cc2ncn(-c3cc(OCc4ccccc4C(F)(F)F)c(C(N)=O)s3)c2cc1OC [GW843682X] | 75
7) CNC(=O)Nc1ccc2c(c1)[C@@]1(CC2)OC(=O)N(CC(=O)N(Cc2ccc(F)cc2)[C@@H](C)C(F)(F)F)C1=O | 37
8) C=CC(=O)Nc1cccc(Sc2nc(Nc3ccc(N4CCN(C)CC4)cc3)ncc2Cl)c1 | 36

----------
- System: Fibroblast
- assay: Multiplex assay against human fibroblast
- Assay type: toxicity, cell-based
- run-parameters: 48 h, 1 µM, compound concentration 1 uM, replicate 2
Reported Population Tubulin-Different-Phenotype (%) values for the following compounds.
property-name: Population Tubulin-Different-Phenotype (%)

1) O=C(c1cc2c(cc1F)OC(c1ccc(F)cc1)(c1ccc(Cl)cc1Cl)O2)N1CCOCC1 (stereo unspecified) | 37
2) CN1CCN(Cc2ccc(Nc3ncc(Cl)c(Nc4ccccc4S(=O)(=O)N(C)C)n3)cc2)CC1 [DUBERMATINIB] | 41
3) CCc1nn(CCCN2CCN(c3cccc(Cl)c3)CC2)c(=O)n1CCOc1ccccc1.Cl [NEFAZODONE HYDROCHLORIDE] | 71
4) CC1=C(C(=O)Nc2cc3cn[nH]c3cc2F)C(c2ccc(C(F)(F)F)cc2)CC(=O)N1 (stereo unspecified) | 23
5) O=c1cc(N2CCOCC2)oc2c(-c3cccc4c3sc3ccccc34)cccc12 | 24
6) COc1ccccc1CN[C@H]1C2CCN(CC2)[C@H]1C(c1ccccc1)c1ccccc1 [CP-96345] | 36
